Data credit: patent US20210024646A1

- Target: T1, CD73 on the surface of human tumor cells (human, UniProt P21589 27-549)
- T1 chain: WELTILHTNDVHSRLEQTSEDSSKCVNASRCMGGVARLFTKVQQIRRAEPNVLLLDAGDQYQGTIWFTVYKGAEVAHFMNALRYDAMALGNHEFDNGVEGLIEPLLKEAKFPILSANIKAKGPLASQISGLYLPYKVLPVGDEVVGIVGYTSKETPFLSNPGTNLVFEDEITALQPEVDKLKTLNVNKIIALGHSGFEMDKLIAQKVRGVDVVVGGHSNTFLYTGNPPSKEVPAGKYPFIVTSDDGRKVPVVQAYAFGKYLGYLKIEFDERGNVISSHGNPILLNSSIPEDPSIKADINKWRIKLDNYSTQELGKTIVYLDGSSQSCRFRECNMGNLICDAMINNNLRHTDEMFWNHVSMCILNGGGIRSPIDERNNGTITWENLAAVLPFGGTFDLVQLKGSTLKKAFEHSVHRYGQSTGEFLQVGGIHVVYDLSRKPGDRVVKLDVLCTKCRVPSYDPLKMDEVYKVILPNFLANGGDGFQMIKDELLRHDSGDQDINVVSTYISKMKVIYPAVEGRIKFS
- Assay name: FACS; MDA-MB-231 cells, left table
Measured pEC50 of individual entries
pEC50 field: float, defined as -log10 of concentration (mol/L).

Known pEC50 results, listed for orientation:
>>> experimental_result("Hu001c-28 (antibody, V domains shown) VH: QVQLVQSGAEVKKPGASVKVSCKTSGYTFTNYYIYWVKQRPGQGLEWIGWIYPGNLNIKYNEKFKGRVTITADKSASTAYMELSSLRSEDTAVYYCARDDNYAWFAYWGQGTLVTVSS VL: DIQMTQSPSSLSASVGDRVTITCKASQDVSTAVAWYQQKPGKSPKLLIYWTNTRHTGVPSRFSGSGSGTDHTLTISSLQPEDFATYYCQQHYSTPFTFGQGTKLEIK")
9.35
>>> experimental_result("Hu001c-14 (antibody, V domains shown) VH: QVQLVQSGAEVKKPGASVKVSCKTSGYTFTNYYIYWVRQAPGQRLEWMGWIYPGNLNIKYNEKFKGRVTITADTSASTAYMELSSLRSEDTAVYYCARDDNYAWFAYWGQGTLVTVSS VL: DIQMTQSPSSLSASVGDRVTITCKASQDVSTAVAWYQQKPGKAPKLLIYWTNTRHTGVPSRFSGSGSGTDHTLTISSLQPEDFATYYCQQHYSTPFTFGQGTKLEIK")
9.35
>>> experimental_result("Hu001c-23 (antibody, V domains shown) VH: QVQLVQSGAEVKKPGASVKVSCKASGYTFTNYYIYWVKQRPGQGLEWIGWIYPGNLNIKYNEKFKGRVTITADKSASTAYMELSSLRSEDTAVYYCARDDNYAWFAYWGQGTLVTVSS VL: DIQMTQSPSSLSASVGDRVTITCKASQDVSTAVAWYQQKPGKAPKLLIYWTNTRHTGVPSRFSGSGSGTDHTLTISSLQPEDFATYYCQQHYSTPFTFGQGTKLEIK")
9.40
>>> experimental_result("Hu001c-22 (antibody, V domains shown) VH: QVQLVQSGAEVKKPGASVKVSCKASGYTFTNYYIYWVKQRPGQRLEWIGWIYPGNLNIKYNEKFKGRVTITADKSASTAYMELSSLRSEDTAVYYCARDDNYAWFAYWGQGTLVTVSS VL: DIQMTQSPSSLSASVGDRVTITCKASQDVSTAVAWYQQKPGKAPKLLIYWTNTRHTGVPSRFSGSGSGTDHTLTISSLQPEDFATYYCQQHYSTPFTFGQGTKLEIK")
9.28

Prompt: Given the entry Hu001c-24 (antibody, V domains shown) VH: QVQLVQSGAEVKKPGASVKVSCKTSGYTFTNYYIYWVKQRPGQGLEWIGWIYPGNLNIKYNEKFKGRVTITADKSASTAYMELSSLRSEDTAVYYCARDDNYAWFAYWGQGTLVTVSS VL: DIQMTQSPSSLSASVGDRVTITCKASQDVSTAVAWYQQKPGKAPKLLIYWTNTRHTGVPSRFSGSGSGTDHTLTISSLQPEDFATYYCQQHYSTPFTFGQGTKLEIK , report its measured pEC50.
Completion: 9.36

Prompt: Quick one: pEC50 of Hu001c-21 (antibody, V domains shown) VH: QVQLVQSGAEVKKPGASVKVSCKASGYTFTNYYIYWVRQAPGQRLEWIGWIYPGNLNIKYNEKFKGRVTITADKSASTAYMELSSLRSEDTAVYYCARDDNYAWFAYWGQGTLVTVSS VL: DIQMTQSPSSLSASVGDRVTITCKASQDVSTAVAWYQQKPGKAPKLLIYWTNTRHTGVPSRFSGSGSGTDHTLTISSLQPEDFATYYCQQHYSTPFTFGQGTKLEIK ?
Completion: 9.69
